# Target System: T1, canine OX40L, full length membrane form, expressed on HEK293 cells (canine)
# T1 chain: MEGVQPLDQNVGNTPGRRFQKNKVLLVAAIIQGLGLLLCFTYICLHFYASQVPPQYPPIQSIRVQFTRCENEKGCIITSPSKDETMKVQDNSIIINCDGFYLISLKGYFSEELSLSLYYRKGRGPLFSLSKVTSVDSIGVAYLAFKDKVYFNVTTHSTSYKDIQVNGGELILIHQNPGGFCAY
# Method Description: cell-based or functional assay
Each item that follows carries a reported % Signal Inhibition Rep1.
Output spec: scalar in %, unitless text.

PMX040 (antibody, V domains shown, also called PMX40) VH: EVQLVESGGDLVKPGGSLRLSCVASGFTFSNFEMYWVRQAPGKGLEWVARIYESGTTTYHAEGVKGRFTISKDNVKNMAYLQMNSLRAEDTAVYYCTSASSSSWRFDYWGQGTLVTVSS VL: SYVLTQLPSVSVTLRQTARITCGGDSIGRKNVCWFQQKLGQAPILIIYDDSSRPSGIPERFSGANSGNTATLTISGALAEDEADYYCQVWDSSTGIFGGGTHLTVL : 75.4
PMX082 (antibody, V domains shown, also called PMX82) VH: EVQLVESGGDLVKPGGSLRLSCVASGFTFSSHHMTWVRQAPGKGLQWVAYIVSGGTNTNYADAVKGRFTISRDNAKNTLYLQMNSLRAEDTAVYYCASDLVLAVGAPFYWGQGTLVTVSS VL: SYELTQPPSVNVTLRETAHITCGGDSIGRKYVQWIQQNPGQAPVVIIYKDINRPTGIPERFSGANSGNTATLTISGALAEDEADYYCQVGDSGTKAVFGEGTQLTVL : 72.8
PMX291 (antibody, V domains shown) VH: EVQLVESGGDLLKPGGSLRLSCVASGFPFRNYDMTWVRQAPGKGLQWVAAIHYDGSNTYYTDAVKGRFTISRDNARNTVFLQMNSLRAEDTAVYYCAKKFNNYRPFDYWGQGTLVTVSS VL: DIVMTQTPPSLSVSPRETPSISCKASQSLLRSDGNTYLEWYLQKPGQSPQLLIYLVSNRFTGVSDRFSGSGSGTDFTLRISRVEANDAGVYYCGQGTQLPWTFGAGTKVELK : 95.9
PMX048 (antibody, V domains shown, also called PMX48) VH: EVQLVESGGDLVKPGGSLRLSCVASGFTFNNYEMYWVRQAPGKGLEWVARIYESGTTTYSAEADTGRFTISRDNAKNMVFLQMNSLRAEDTAVYYCASASSSTWRFDYWGQGTLVTVSS VL: SYVLTQLPSVSVTLGQTARITCGGDSIGRKNVYWFQQKLGQAPVLIIYDDRSRPSGIPERFSGANSGNTATLTISGALAEDEADYYCQVWDSSTGVFGGGTHLTVL : 57.5
PMX103 (antibody, V domains shown) VH: EVQLVESGGDLVRPGGSLRLSCVASGFTFSNLHMNWVRQAPGKGLQWVAFINSGGSGTTYADVVRGRFTISRDYAKNTLNLQMTSLRAEDTAVYYCATGSIWTHFDYWGQGTLVTVSS VL: SFVLTQLPSVSVTLRQTARITCGGDSIGSKSVYWYQQKLGQAPVLIIYRDSNRPTGIPERISGASSGNTATLTISGALAEDEADYYCQVWDSSNKAMFGGGTHLTVL : 57.3
PMX089 (antibody, V domains shown) VH: EVQLVESGGDLVKPGGSLRLSCVASGFTFNNFHMSWVRQAPGKGLQWVAFINSDGGNRNYADVVKGRVTISRDYAKNTLYLQINSLRAEDTAVYYCAGGSIWTHFDYWGQGTLVTVSS VL: SYVLTQLPSMSVTLRQTARITCEGDIIASKRIYWYQQKLGQVPVLLIYADSSRPSGIPERFSGASSGNTATLTISGALAEDEADYYCQVWDNNANSVFGGGTHLTVL : 43.3

query: Data request, read-out % Signal Inhibition Rep1, for PMX095 (antibody, V domains shown) VH: AVQLVESGGDLVRPGGSLRLSCVASGFTFSSYHMNWVRQAPGKGLQWVAFINSGGSSTTYADVVRGRFTISRDYAKNTLFLQMNSLRAEDTAVYYCAIGSIWTHFDYWGQGTLVTVSS VL: SFVLTQLPSVSVTLRQTARITCGGDIIGSKNVYWYQQRLGQAPVLILYRDTNRPTGIPERFSGASSGNTATLTISGALAEDEADYYCQVWDNSNKAMFGGGTHLTVL
result: 40.9

query: Data request, read-out % Signal Inhibition Rep1, for PMX084 (antibody, V domains shown, also called PMX84) VH: EVQLVESGGDLVKPEGSLRLSCVVSGFTFSNYDMSWVRQAPGKGLQWVAFISNDGRITGYTDAVEGRFTISRDNAKNTLYLQMNSLRTEDTAVYYCAKETSRWGFDYWGQGTLVTVSS VL: SYVLTQLPSVSVTLRQTARITCGGDSIGSKNVYWHQQKLGQAPVLIIYDDSSRPSGIPERFSGANSGNTATLTISGALAEDEADYYCQVWDSSTSVFGGGTHLTVL
result: 47.2

query: Data request, read-out % Signal Inhibition Rep1, for PMX027 (antibody, V domains shown, also called PMX27) VH: EVHLVESGGDLVKPGGSLRLSCVASGFTFSTYHMSWVRQAPGKGLQWVAFINAGEISTNYADAVKGRFTISRDNAKNIFYLQMNSLRAEDTAVYYCATGHIWIRPFDYWGQGTLVTVSS VL: SYVLTQLPSMSVTLRQTARITCEGNSIGRKRVNWYQQKLGQVPVLIIYDDDSRPSGIPERFSGANSGNTATLTISGALAEDEAEYYCQVWDSSNNWVFGEGTQLTVL
result: 72.2

query: Data request, read-out % Signal Inhibition Rep1, for PMX111 (antibody, V domains shown) VH: EVQLVESGGDLVRPGGSLRLSCVASGFTFSSYHMNWVRQAPGKGLQWVAFINSGASSATYADVVRGRFTISRDYAKNTLYLQMNSLRAEDTAVYYCASGSIWTHFDFWGQGTLVTVSS VL: SFVLTQLPSVSVTLRQTARITCGGDSVGSKSVYWYQQKLGQAPVLIIYRDSNRPTGIPERFSGASSGNTATLTISGALAEDEADYYCQVWDNSNKAMFGGGTHLTVL
result: 44.2

These data points were gathered from patent US20250340659A1.
